- Test Protocol: Human HepG2 cell viability assay in 384 well format
- Assay type: toxicity, cell-based
- Design: dose 125 nL, time 70.5 hour; concentration not given beside the values
- Test Parameters: HepG2 cells, read-out: Inhibition
Reported Property: cytotoxicity at 70.5 h (%)
Give bare numbers, in %.

Some solved cases for reference:
Molecule	Recorded Number
COc1ccccc1C1(O)CCCN(C(=O)c2cnc(SC)nc2)C1 (stereo unspecified)	-3.73
CN(C)C(=O)Cc1nc(CN2CCCC2Cn2cncn2)cs1 (stereo unspecified)	-10.9
Cc1cc(N[C@@H](CO)c2ccccc2)n2nc(C)c(C)c2n1	-2.95
Cc1cc(C2CCCN(C(=O)c3c(C)noc3C)C2)n[nH]1 (stereo unspecified)	-5.28
CCN(Cc1ccoc1)C(=O)NC1CCN(C(=O)OC(C)(C)C)C1 (stereo unspecified)	-2.35
Cc1cc(C)c(C(=O)Nc2cccc(CN3CCC(CO)CC3)c2)o1	4.26
CC(C)C(=O)N1CCCc2c(cnn2-c2ccccc2)C1	-5.24
NC(=O)CCCNC(=O)c1cc(Br)c2c(c1)OCCO2	-10.4

# per-item lookup of cytotoxicity at 70.5 h; items listed below
1. NC(=O)CCSc1n[nH]c(-c2ccc3c(c2)CCC3)n1
2. Cc1ccoc1C(=O)N1CC[C@H]2C[C@H](c3nnc(C4CC4)o3)O[C@@H]2C1
3. Cc1ccc(C(=O)N2CCC3(CC2)CC(c2ccccc2)C(=O)N3)cn1 (stereo unspecified)

Output line:
1. -1.76
2. -11.4
3. 0.473

====

- Test Protocol: Human HepG2 cell viability assay in 384 well format
- Type: toxicity, cell-based
- Design: dose 125 nL, time 70.5 hour; concentration not given beside the values
- Test Parameters: HepG2 cells, read-out: Inhibition
Reported Property: cytotoxicity at 70.5 h (%)
Answers are plain numbers, in %.

A selection of reference data follows.
Compound	cytotoxicity at 70.5 h / %
O=C(COc1ccc(Cl)cc1)N1CCN(c2cnccn2)CC1	-0.713
Cc1nc2c(NCC(C)N(C)c3ccccc3)ncnc2o1 (configuration not stated)	-5.13
CC(C)c1nc(CN2CCCC2Cn2cncn2)no1 (configuration not stated)	5.22
CSCc1cc(F)ccc1CNCc1cccnc1	-6.28
CC(C)NC(=O)c1cc2c(s1)CCN2C(=O)CN(C)C	-4.91
O=C(c1ncncc1Cl)N1CCC2(CCCC2)CC1	-5.92
CC(C)CN1CCC2(CCCNC2)C1=O (configuration not stated)	-10.9
Cc1[nH]c(=O)[nH]c(=O)c1CN1CCCC(CCc2c(F)cccc2F)C1 (configuration not stated)	-12.5

Please go through the list and note cytotoxicity at 70.5 h for each compound.
1. COc1ccc(C(=O)NS(=O)(=O)c2cncc(Br)c2)cc1OC
2. Cn1c(CN2CCCCC2)cc(=O)c(O)c1CN1CCCCC1
3. Cc1cnc(N2C[C@H]3C[C@H](C(=O)N(C)C)[C@@H](C2)O3)nc1

Output line:
-3.31
2.14
-13.5

Summary for this compound, Clc1ccccc1Cc1noc(CN2CCCC(CN3CCCC3)C2)n1 (configuration not stated) : cytotoxicity at 70.5 h is -3.9

====

- Test Protocol: Human HepG2 cell viability assay in 384 well format
- Format: toxicity, cell-based
- Set-up: dose 125 nL, time 70.5 hour; concentration not given beside the values
- Test Parameters: HepG2 cells, read-out: Inhibition
Please respond with reported cytotoxicity at 70.5 h for every item in the list.
One number for each entry, in %.

Known cytotoxicity at 70.5 h results, listed for orientation:
Compound	cytotoxicity at 70.5 h, %
COc1ccccc1C(=O)N1CCCC1c1ncc2c(n1)CCNC2 (stereo unspecified)	-2.07
COCC(C)(O)CNC(=O)COc1ccccc1OC (stereo unspecified)	-3.09
CCN(CC1CN(Cc2cccnc2)CCO1)c1cccnn1 (stereo unspecified)	-0.418
c1ccn2c(SCC3CN=C(N4CCOCC4)S3)ncc2c1 (stereo unspecified)	19.3
CC(C)(C)OC(=O)NCCC(=O)NCC(O)c1cccc(F)c1 (stereo unspecified)	-0.447
COc1ccc(S(=O)(=O)N2CCC(Cn3ccnc3)CC2)cc1	-6.35
CSc1cccc(NC(=O)N2CCCC(CNC(=O)c3ccco3)C2)c1 (stereo unspecified)	-8.32
CN(Cc1ccco1)[C@@H]1CN(Cc2ccsc2)C[C@@H]2CCCO[C@@H]21	2.78

Batch request: cytotoxicity at 70.5 h per item, same order as input.
1. Cc1[nH]c(-c2ccccc2)nc1C(=O)N1CCC(O)(CO)CC1
2. Cn1cncc1CN1C[C@@H]2OCCN(c3ncccn3)[C@@H]2C1
3. CCn1cc(S(=O)(=O)NC(CO)Cc2c[nH]c3ccccc23)cn1 (stereo unspecified)

Output line:
1. 17.9
2. -9.56
3. -7.79

====

- Test Protocol: Human HepG2 cell viability assay in 384 well format
- Assay type: toxicity, cell-based
- Set-up: dose 125 nL, time 70.5 hour; concentration not given beside the values
- Test Parameters: HepG2 cells, read-out: Inhibition
Would you mind telling me the reported cytotoxicity at 70.5 h of each entry?
Give bare numbers, in %.

Consider the reported cytotoxicity at 70.5 h for these molecules:
Molecule	Recorded Number
CCC(NC(=O)NCc1cc(Cl)ccc1OC)c1noc(C)n1 (stereo unspecified)	16
O=C(NCc1cn2c(n1)CN(Cc1cccnc1)CC2)C1CCC1	7.24
COc1ccccc1CC(=O)NC(CC(=O)O)c1ccc(F)cc1 (stereo unspecified)	-8.41
CC(=O)N1CCC(c2nccnc2-c2ccc(F)c(F)c2)CC1	-0.906

Go through the items and report each one's cytotoxicity at 70.5 h.
1. CS(=O)(=O)N1CCCC12CCCN(C(=O)c1ccncc1)C2 (stereo unspecified)
2. CC(=O)N1CCc2nc(-c3ccc(F)cc3)nc(NC(C)C)c2CC1
3. O=C(Cc1cccs1)N1C[C@@H]2CC[C@H](C1)N(Cc1ccccn1)C2=O
4. CN(C)CCOc1ccc(CNC(=O)c2cccc3[nH]ncc23)cc1
5. COCCCN1CC2(CCCCN2C(C)=O)CC1=O (stereo unspecified)
6. O=C(O)C1CCCN1c1nc(-c2ccc(Cl)cc2)cc(C(F)(F)F)n1 (stereo unspecified)
7. CCOC(=O)N1CCN(C(=O)C(C)n2ccnc2C(C)C)CC1 (stereo unspecified)

Output line:
-7.69
7.5
-10.5
9.57
-7.86
-3.11
8.16

====

- Test Protocol: Human HepG2 cell viability assay in 384 well format
- Assay type: toxicity, cell-based
- Design: dose 125 nL, time 70.5 hour; concentration not given beside the values
- Test Parameters: HepG2 cells, read-out: Inhibition
Reported Property: cytotoxicity at 70.5 h (%)
One number for each entry, in %.

Compound	Reading Unit	Recorded Number
Cc1cc(CNC(=O)N2CCN(c3ccc(Cl)cn3)CC2)c(C)o1	%	18.2
COc1cc(CCC(=O)N2CCC(c3cc4ncccc4[nH]3)CC2)on1	%	22
CCn1c(C)cc(C(=O)N2CCC(NC(=O)c3cc(C)no3)CC2)c1C	%	-112

State recorded cytotoxicity at 70.5 h for all listed compounds.
1. O=C(CN1CCOCC1)Nc1cc(C(F)(F)F)ccc1-n1cccc1
2. CCCN(C1CCc2ccccc2C1)S(C)(=O)=O (stereo unspecified)
3. CC(C)COCC1CN(Cc2ccsc2)Cc2ncn(C)c21 (stereo unspecified)

Output line:
1: -3.59; 2: -2.87; 3: -9.98

====

Answer each item with its documented cytotoxicity at 70.5 h.
- Test Protocol: Human HepG2 cell viability assay in 384 well format
- Format: toxicity, cell-based
- Set-up: dose 125 nL, time 70.5 hour; concentration not given beside the values
- Test Parameters: HepG2 cells, read-out: Inhibition
Numbers only, in %.

// solved cases for cytotoxicity at 70.5 h follow
Compound	cytotoxicity at 70.5 h (%)
Cc1cc(NCc2ccc(C#N)cc2)n2nc(C)cc2n1	-4.7
c1cncc(CN(Cc2ccc(-n3ccnc3)cc2)CC2CCCO2)c1 (stereo unspecified)	13.2
CC/C=C(/C)C(=O)NS(=O)(=O)c1ccc(C#N)c(C(F)(F)F)c1	-12.5
Cc1[nH]c2c(C)ccc(C)c2c1CC(=O)NC1CCCNC1=O (stereo unspecified)	-5.85
CC(C)Oc1cc(N2CC[C@H](CO)[C@@H](O)C2)nc(N)n1	-8.74

# return cytotoxicity at 70.5 h for each item in the list
1. C[C@@H]1CN(C(=O)CCCN2CCOCC2)CC[C@@]1(O)C1CCC1
2. Cc1cc2nc(CO[C@H]3CN(C(=O)C4CC4)C[C@H]3F)[nH]c2cc1C
3. O=C(C1CCOC1)N1CCN(CC(F)(F)F)c2ccccc21 (stereo unspecified)
4. Cc1nc(N(C)C)nc(NCCc2c[nH]cn2)c1C
5. Cc1nn(C)c(Oc2cccc(F)c2)c1NC(=O)C1CCCO1 (stereo unspecified)
6. O=S(=O)(C1CC1)N1CCC2(CN(c3ccccn3)C2)C1

Output line:
-3.73
27.1
-5.62
23.7
-6.09
-7.95
